// data source = ChEMBL document CHEMBL5380795

system: Escherichia coli; assay: Antibacterial activity against KPC producing Escherichia coli ATCC BAA-2340 assessed as inhibition of bacterial growth incubated for 18 to 24 hrs by broth microdilution method; format: functional; conditions: time 18-24 hrs
Measured MIC, listed per entry for reference.

# Item smiles, MIC (µg/mL)
rows = [
    ("CCCCCCCCCC(=O)N[C@H](CCN)C(=O)N[C@H]1CCNC(=O)[C@H]([C@@H](C)O)NC(=O)[C@H](CCN)NC(=O)[C@H](CCN)NC(=O)[C@H](CC(C)C)NC(=O)[C@@H](Cc2cccc(Cl)c2)NC(=O)[C@H](CCN)NC1=O", 1),
    ("CCCCCCCCCC(=O)N[C@H](CCN)C(=O)N[C@H]1CCNC(=O)[C@H]([C@@H](C)O)NC(=O)[C@H](CCN)NC(=O)[C@H](CCN)NC(=O)[C@H](CC(C)C)NC(=O)[C@H](CC(C)C)NC(=O)[C@H](CCN)NC1=O", 64),
]

====

experiment: AUC (0 to infinity) in overnight fasted Sprague-Dawley rat at 4 mg/kg, ip measured for 24 hrs by LC-MS/MS analysis; type: ADME, organism-based; design: dose 4 mg/kg, time 24 hrs, route ip; details: in vivo

# Item smiles, AUC(0-inf) [ng·h/mL]
measured = [
    ("CCCCCCC[C@@H](O)CC(=O)N[C@H](CCN)C(=O)N[C@H]1CCNC(=O)[C@H]([C@@H](C)O)NC(=O)[C@H](CCN)NC(=O)[C@H](CCN)NC(=O)[C@H]([C@@H](C)O)NC(=O)[C@@H](Cc2ccccc2)NC(=O)[C@H](CCN)NC1=O", 17600),
]

====

tested on: Pseudomonas aeruginosa; assay: Antibacterial activity against carbapenem resistant Pseudomonas aeruginosa clinical isolate 19-3 assessed as inhibition of bacterial growth incubated for 18 to 24 hrs by broth microdilution method; type: functional; settings: time 18-24 hrs

# Item smiles, Comparison sign, MIC [µg/mL]
records = [
    ("CCCCCCCCCC(=O)N[C@H](CCN)C(=O)N[C@H]1CCNC(=O)[C@H]([C@@H](C)O)NC(=O)[C@H](CCN)NC(=O)[C@H](CCN)NC(=O)[C@H](CC(C)C)NC(=O)[C@@H](CC(C)C)NC(=O)[C@H](CCCN)NC1=O", ">", 64),
    ("CCCCCCC[C@@H](O)CC(=O)N[C@H](CCN)C(=O)N[C@H]1CCNC(=O)[C@H](CC(C)C)NC(=O)[C@H](CCN)NC(=O)[C@H](CCN)NC(=O)[C@H](CC(C)C)NC(=O)[C@@H](CC(C)C)NC(=O)[C@H](CCN)NC1=O", "=", 4),
    ("CCCCCCC[C@@H](O)CC(=O)N[C@@H](CCN)C(=O)N[C@H](CCN)C(=O)N[C@H]1CCNC(=O)[C@H](CC(C)C)NC(=O)[C@H](CCN)NC(=O)[C@H](CCN)NC(=O)[C@H](Cc2ccccc2)NC(=O)[C@@H](CC(C)C)NC(=O)[C@H](CCN)NC1=O", "=", 4),
]

====

test: Cytotoxicity against human HK-2 cells assessed as inhibition of cell growth incubated for 72 hrs by CCK-8 assay; format: toxicity, cell-based
Bridge positions count the residues as written; N and C are the ends. Square brackets hold non-standard residues; d marks the D form. Peptide text beside a SMILES is read from it. * marks the point of attachment. Decanoyl(3R-OH) = CCCCCCC[C@@H](O)CC(=O)*; dDab = NCC[C@@H](N)C(=O)O; Dab = NCC[C@H](N)C(=O)O

# Molecule, IC50 at 72 h / µg/mL
records = [
    ("CC[C@H](C)CCCCC(=O)N[C@H](CCN)C(=O)N[C@H]1CCNC(=O)[C@H](CC(C)C)NC(=O)[C@H](CCN)NC(=O)[C@H](CCN)NC(=O)[C@H](CC(C)C)NC(=O)[C@@H](CC(C)C)NC(=O)[C@H](CCN)NC1=O", 86.9),
    ("CCCCCCC[C@@H](O)CC(=O)N[C@H](CCN)C(=O)N[C@H]1CCNC(=O)[C@H]([C@@H](C)O)NC(=O)[C@H](CCN)NC(=O)[C@H](CCN)NC(=O)[C@H](CC(C)C)NC(=O)[C@@H](Cc2ccccc2)NC(=O)[C@H](CCN)NC1=O ({Decanoyl(3R-OH)}-[dDab][Dab][Dab][dF]L[Dab][Dab]T; lactam 2-C)", 125),
    ("CCCCCCCCCC(=O)N[C@H](CCN)C(=O)N[C@H]1CCNC(=O)[C@H]([C@@H](C)O)NC(=O)[C@H](CCN)NC(=O)[C@H](CCN)NC(=O)[C@H](CC(C)C)NC(=O)[C@H](CC(C)C)NC(=O)[C@H](CCN)NC1=O", 58.7),
    ("CCCCCCCCCC(=O)N[C@H](CCN)C(=O)N[C@H]1CCNC(=O)[C@H]([C@@H](C)O)NC(=O)[C@H](CCN)NC(=O)[C@H](CCN)NC(=O)[C@H](CC(C)C)NC(=O)[C@@H](Cc2ccccc2Cl)NC(=O)[C@H](CCN)NC1=O", 54.6),
]
